Biological target: Histamine H3 receptor (guinea pig ileum longitudinal muscle myenteric plexus membranes) (Cavia porcellus)
Construct: Guinea pig ileum longitudinal muscle myenteric plexus membranes; from tissue; host or cells: guinea pig ileum longitudinal muscle myenteric plexus membranes
Sequence (Q9JI35 whole entry): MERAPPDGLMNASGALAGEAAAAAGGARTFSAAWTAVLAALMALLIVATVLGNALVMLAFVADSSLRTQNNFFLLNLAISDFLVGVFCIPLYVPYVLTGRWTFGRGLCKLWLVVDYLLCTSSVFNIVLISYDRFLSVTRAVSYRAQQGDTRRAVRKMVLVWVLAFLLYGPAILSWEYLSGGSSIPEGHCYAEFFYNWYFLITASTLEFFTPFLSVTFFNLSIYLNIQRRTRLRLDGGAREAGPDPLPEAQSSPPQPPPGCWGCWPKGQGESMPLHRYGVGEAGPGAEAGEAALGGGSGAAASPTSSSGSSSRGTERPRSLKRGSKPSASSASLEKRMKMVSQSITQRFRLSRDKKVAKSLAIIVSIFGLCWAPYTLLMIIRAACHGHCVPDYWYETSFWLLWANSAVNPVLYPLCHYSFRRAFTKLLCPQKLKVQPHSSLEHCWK
Experiment: Histamine H3 radioligand binding assay - guinea pig ileum
Details: [3H]-R-α-methylhistamine (50 μl; 3 nM), 165 min, 21±3° C., pH7.4, typical variance ±0.12 log units, read-out: pKI (binding assay) - ileum (converted)
Description: Histamine H3 radioligand binding assay--guinea pig ileum Male Dunkin Hartley guinea pigs (200-300 g) were used. The small intestine was rapidly removed (cut ^- 5 cm from caecum and 5 cm from stomach) and placed in ice-cold 20 mM Hepes-NaOH buffer (pH7.4 at 21±3° C.). […] Data are analysed using GraphPad prism and the general equation for a competition curve with variable Hill slope (nH). […] KD is the equilibrium dissociation constant for the radioligand determined by saturation experiments. […]
Catalogue of Ki readings, one per entry.
# do not omit the unit; it follows the number

# example entries with known answers
C[C@H]1CN(CCc2c[nH]cn2)[S+]([O-])N1 (stereo partly shown) ... 1660 nM
O=S1(=O)N(CCCc2c[nH]cn2)CCN1Cc1ccccc1 ... 2950 nM
O=S1(=O)NC(Cc2ccc(Cl)cc2)CN1CCCCCc1c[nH]cn1 (stereo not shown) ... 42.7 nM

Proceeding to the next compound to report its Ki.
// sample O=S1(=O)NCCN1CCCc1c[nH]cn1 , its Ki was 13.5 nM
